- Tested on: CAKI-1
- assay-overview: NCI tumour cell line growth inhibition, 48 h
The source made the active and inactive calls. No stated cut-off is given here; in the data, active = GI50 up to about 1.1 µM and inactive = higher.
# valid calls are yes (1) = active, no (0) = inactive; nothing else

Incoming: What outcome does the record of this test show for `CCCCc1cc2c(C)cc(=O)oc2c(O)c1O` ?
Outgoing: no (0)

Incoming: What outcome does the record of this test show for COC(=O)C1CCC[C@H]2C(CO)=C(C)C(=O)[C@@H]12 (stereo partly specified) ?
Outgoing: no (0)

Incoming: What outcome does the record of this test show for `O=[N+]([O-])c1cc(CCl)ccc1CCl` ?
Outgoing: no (0)

Incoming: What outcome does the record of this test show for `O=C(c1ccc(Cl)cc1Cl)N(Cc1cccnc1)C(=S)N(Cc1cccnc1)C(=O)c1ccc(Cl)cc1Cl` ?
Outgoing: no (0)

Incoming: What outcome does the record of this test show for `C[n+]1c(-c2ccc(/C=C/C=N\NC(=O)c3ccc(C(=O)N/N=C\C=C\c4ccc(-c5cn6ccccc6[n+]5C)cc4)cc3)cc2)cn2ccccc21` ?
Outgoing: no (0)

***
Incoming: What outcome does the record of this test show for `COc1cc2c(cc1OC(=O)c1cc3ccccc3[nH]1)N=C[C@@H]1CCCN1C2=O` ?
Outgoing: yes (1)

Incoming: What outcome does the record of this test show for `Cc1cc2c(=O)[nH]nc(N)c2c(N)n1` ?
Outgoing: no (0)

Incoming: What outcome does the record of this test show for `O=CNNC(=O)CSc1nc2ccc(I)cc2c(=O)n1Cc1ccccc1` ?
Outgoing: no (0)

Incoming: What outcome does the record of this test show for `COC(=O)c1c2c(cc3c1CCC3)CCC2` ?
Outgoing: no (0)

Incoming: What outcome does the record of this test show for `O=C(Cc1ccc([N+](=O)[O-])c([N+](=O)[O-])c1CC(=O)C(=O)Nc1cc(Cl)ccc1Cl)C(=O)Nc1cc(Cl)ccc1Cl` ?
Outgoing: no (0)

Incoming: What outcome does the record of this test show for `CCn1c2ccccc2c2ccc(C3C(C(=O)OC)=C(C)NC(C)=C3C(=O)OC)cc21` ?
Outgoing: no (0)

Incoming: What outcome does the record of this test show for `Cn1c(=O)c2c(nc3sc4c(n32)C(=O)c2c(O)ccc(O)c2C4=O)n(C)c1=O` ?
Outgoing: no (0)

Incoming: What outcome does the record of this test show for COc1ccc(C(C#N)NCCCCCCNC(C#N)c2ccc(OC)cc2)cc1 (stereo unspecified) ?
Outgoing: no (0)
